Reference for the values: patent US4344958A

- measured_on: Hb-S (Homo sapiens, UniProt P68871+P69905, E7V)
- test_summary: Oxygen-Affinity Assay (whole Hb-S blood, tonometer)
- Type: cell-based
- Set-up: key: ΔP50 in mm Hg (oxygen tension at 50% saturation, control vs treated)
- run_conditions: 10 mM test compound, 37° C., difference control vs treated, negative = toward normal Hb-S oxygen affinity, oxygen partial pressure plotted in mm Hg
property_name: Δ P50

>>> df
                                   molecule  assay_result
0  Cl.Cl.Nc1ccc(SCC2=NCCN2)cc1Cl [Example 4]         -10.0
1   Cl.Clc1ccc(OCC2=NCCN2)cc1Cl [Example 2]          -8.0
2   Cl.Clc1ccc(NCC2=NCCN2)cc1Cl [Example 1]         -12.6
3    Cl.Oc1ccc(SCC2=NCCN2)cc1Cl [Example 3]         -13.0

###

- measured_on: Hb-S (Homo sapiens, UniProt P68871+P69905, E7V)
- test_summary: Oxygen-Affinity Assay (whole Hb-S blood, tonometer)
- Assay type: cell-based
- Parameters: key: ΔP50 in mm Hg (oxygen tension at 50% saturation, control vs treated)
- run_conditions: 5 mM test compound, 37° C., difference control vs treated, negative = toward normal Hb-S oxygen affinity, oxygen partial pressure plotted in mm Hg
property_name: Δ P50

>>> print(df.to_string())
                                   compound                               measured_on  assay_result
0    Cl.Oc1ccc(SCC2=NCCN2)cc1Cl [Example 3]  Hb-S (Homo sapiens, UniProt P68871+P69905, E7V)             0
1  Cl.Cl.Nc1ccc(SCC2=NCCN2)cc1Cl [Example 4]  Hb-S (Homo sapiens, UniProt P68871+P69905, E7V)            -9
2   Cl.Clc1ccc(OCC2=NCCN2)cc1Cl [Example 2]  Hb-S (Homo sapiens, UniProt P68871+P69905, E7V)            -8
3   Cl.Clc1ccc(NCC2=NCCN2)cc1Cl [Example 1]  Hb-S (Homo sapiens, UniProt P68871+P69905, E7V)            -9
